Record form. Attribute: difference in excitability. Fill in for each entry.
- Tested on: Danio rerio larvae (5 dpf)
- assayComment: difference in excitability vs DMSO (percentage points); higher = more excitable than DMSO
- experimentalConditions: 10 µM; exposure time 6 h
Structures can show the parent of a compound that is named as a salt.
API note: the answer field is a bare number with no unit suffix.

Reported difference in excitability ( CC(CN1c2ccccc2Sc2ccccc21)N(C)C (stereo not drawn) [Promethazine (hydrochloride)] ) = 7.65

Reported difference in excitability ( NCCc1ccc(O)c(O)c1 [Dopamine (hydrochloride)] ) = 4.19

Reported difference in excitability ( COc1ccc(CC2c3cc(OC)c(OC)cc3CC[N+]2(C)CCC(=O)OCCCCCOC(=O)CC[N+]2(C)CCc3cc(OC)c(OC)cc3C2Cc2ccc(OC)c(OC)c2)cc1OC (stereo not drawn) [Atracurium (besylate)] ) = 5.62

Reported difference in excitability ( Cc1[nH]c(=O)c(C#N)cc1-c1ccncc1 [Milrinone] ) = -4.22

Reported difference in excitability ( O=C1C(O)=C([C@H]2CC[C@H](c3ccc(Cl)cc3)CC2)C(=O)c2ccccc21 [Atovaquone] ) = -0.794

Reported difference in excitability ( CCC1(c2ccccc2)C(=O)NCNC1=O [Primidone] ) = 3.77

Reported difference in excitability ( CC1(C)CCC(CN2CCN(c3ccc(C(=O)NS(=O)(=O)c4ccc(NCC5CCOCC5)c([N+](=O)[O-])c4)c(Oc4cnc5[nH]ccc5c4)c3)CC2)=C(c2ccc(Cl)cc2)C1 ) = 0.697

Reported difference in excitability ( O=C1CN2Cc3c(ccc(Cl)c3Cl)N=C2N1 [Anagrelide (hydrochloride)] ) = 11.5

----------
- System: Danio rerio larvae (5 dpf)
- assayComment: difference in activity during first hour vs DMSO (percentage points); higher = more activity than DMSO
- experimentalConditions: 10 µM; exposure time 6 h
observable: difference in activity during first hour
API note: the answer field is a bare number with no unit suffix.

Reported difference in activity during first hour ( C[C@H](Cn1cnc2c(N)ncnc21)OCP(=O)(O)O [Tenofovir] ) = 0.971

Reported difference in activity during first hour ( NC[C@H]1O[C@H](O[C@H]2[C@H](O)[C@@H](O[C@H]3O[C@H](CO)[C@@H](O)[C@H](N)[C@H]3O)[C@H](N)C[C@@H]2N)[C@H](N)C[C@@H]1O [Tobramycin] ) = -2.18

Reported difference in activity during first hour ( C=CC[N+]1([C@H]2C[C@H]3[C@@H]4CC[C@H]5C[C@H](O)[C@@H](N6CCOCC6)C[C@]5(C)[C@H]4CC[C@]3(C)[C@H]2OC(C)=O)CCCC1 [Rocuronium (bromide)] ) = -1.74

----------
Record form. Attribute: difference in activity during first hour. Fill in for each entry.
- System: Danio rerio larvae (5 dpf)
- assayComment: difference in activity during first hour vs DMSO (percentage points); higher = more activity than DMSO
- experimentalConditions: 10 µM; exposure time 6 h
Where a name gives a salt, the structure may show the parent alone.
API note: the answer field is a bare number with no unit suffix.

Reported difference in activity during first hour ( CN[C@H](CC(C)C)C(=O)N[C@H]1C(=O)N[C@@H](CC(N)=O)C(=O)N[C@H]2C(=O)N[C@H]3C(=O)N[C@H](C(=O)N[C@H](C(=O)O)c4cc(O)cc(O)c4-c4cc3ccc4O)[C@H](O)c3ccc(c(Cl)c3)Oc3cc2cc(c3O[C@@H]2O[C@H](CO)[C@@H](O)[C@H](O)[C@H]2O[C@H]2C[C@](C)(N)[C@H](O)[C@H](C)O2)Oc2ccc(cc2Cl)[C@H]1O [Vancomycin (hydrochloride)] ) = 1.02

Reported difference in activity during first hour ( Nc1cccc2c1CN(C1CCC(=O)NC1=O)C2=O (configuration not stated) [Lenalidomide] ) = 0.485

----------
- Tested on: Danio rerio larvae (5 dpf)
- assayComment: difference in excitability vs DMSO (percentage points); higher = more excitable than DMSO
- experimentalConditions: 10 µM; exposure time 6 h
Structures can show the parent of a compound that is named as a salt.
observable: difference in excitability
API note: the answer field is a bare number with no unit suffix.

Reported difference in excitability ( Cc1c(C(=O)Nc2ccc(N3C[C@@H](C)O[C@@H](C)C3)nc2)cccc1-c1ccc(OC(F)(F)F)cc1 [LDE225 (phosphate)] ) = 13

Reported difference in excitability ( C=C1CC[C@H](O)C/C1=C/C=C1\CCC[C@]2(C)[C@@H]([C@H](C)/C=C/[C@H](C)C(C)C)CC[C@@H]12 [Vitamin D2] ) = 3.72

Reported difference in excitability ( CCN(CC)C(=O)[C@@]1(c2ccccc2)C[C@H]1CN [Levomilnacipran (hydrochloride)] ) = 9.82

Reported difference in excitability ( CC(C)Nc1cccnc1N1CCN(C(=O)c2cc3cc(NS(C)(=O)=O)ccc3[nH]2)CC1 [Delavirdine (mesylate)] ) = -2.46

----------
Record form. Attribute: difference in habituation to acoustic stimuli. Fill in for each entry.
- System: Danio rerio larvae (5 dpf)
- assayComment: difference in habituation to acoustic stimuli vs DMSO (percentage points); higher = more habituation than DMSO
- experimentalConditions: 10 µM; exposure time 6 h
Where a name gives a salt, the structure may show the parent alone.
API note: the answer field is a bare number with no unit suffix.

Reported difference in habituation to acoustic stimuli ( CC(C)CN(C[C@@H](O)[C@H](Cc1ccccc1)NC(=O)O[C@H]1CCOC1)S(=O)(=O)c1ccc(N)cc1 [Amprenavir] ) = 0.569

Reported difference in habituation to acoustic stimuli ( COc1cc(C(=O)NCc2ccc(OCCN(C)C)cc2)cc(OC)c1OC [Trimethobenzamide (hydrochloride)] ) = 2.91

Reported difference in habituation to acoustic stimuli ( N#C[C@@H]1C[C@@H]2C[C@@H]2N1C(=O)[C@@H](N)C12CC3CC(CC(O)(C3)C1)C2 [Saxagliptin (hydrochloride)] ) = 5.75

Reported difference in habituation to acoustic stimuli ( NCCCC(O)(P(=O)(O)O)P(=O)(O)O [Alendronate (sodium hydrate)] ) = -4.98

Reported difference in habituation to acoustic stimuli ( CCCc1cc(=O)[nH]c(=S)[nH]1 [Propylthiouracil] ) = -0.81

Reported difference in habituation to acoustic stimuli ( Cc1ccc(N(CC2=NCCN2)c2cccc(O)c2)cc1 [Phentolamine (mesylate)] ) = 5.59

Reported difference in habituation to acoustic stimuli ( CN1C2CCCC1CC(NC(=O)c1nn(C)c3ccccc13)C2 (stereo not drawn) [Granisetron (hydrochloride)] ) = 0.641

Reported difference in habituation to acoustic stimuli ( CCN(CC)CC#CCOC(=O)C(O)(c1ccccc1)C1CCCCC1 (stereo not drawn) [Oxybutynin (hydrochloride)] ) = -8.53

Reported difference in habituation to acoustic stimuli ( CCc1c(Cl)c(O)c(Cl)c(O)c1C(=O)O[C@H]1[C@H](O)[C@H](OC)[C@H](OCC2=CC=CC[C@H](O)C(C)=C[C@H](CC)[C@@H](O[C@@H]3OC(C)(C)C(OC(=O)C(C)C)[C@H](O)[C@@H]3O)C(C)=CC(C)=CC[C@@H]([C@@H](C)O)OC2=O)O[C@@H]1C (stereo partly drawn) [Fidaxomycin] ) = 4.21

Reported difference in habituation to acoustic stimuli ( CN(C)CC[C@@H](c1ccc(Cl)cc1)c1ccccn1 [Dexchlorpheniramine (maleate)] ) = 1.79

Reported difference in habituation to acoustic stimuli ( Nc1nc2c(ncn2COC(CO)CO)c(=O)[nH]1 [Ganciclovir] ) = 2.18

Reported difference in habituation to acoustic stimuli ( CCCc1c2oc(C(=O)O)cc(=O)c2cc2c(=O)cc(C(=O)O)n(CC)c12 [Nedocromil (sodium salt)] ) = 7.47

Reported difference in habituation to acoustic stimuli ( NCCNCCNCCN [Trientine (hydrochloride)] ) = -1.81

Reported difference in habituation to acoustic stimuli ( COc1ccc(-c2ccc3cc(C(=O)O)ccc3c2)cc1C12CC3CC(CC(C3)C1)C2 [Adapalene] ) = -5

Reported difference in habituation to acoustic stimuli ( O=C(c1ccccc1)c1ccc2n1CCC2C(=O)O (stereo not drawn) [Ketorolac (tromethamine salt)] ) = 7.86

Reported difference in habituation to acoustic stimuli ( CNC(=O)c1ccc(N2C(=S)N(c3cnc(C#N)c(C(F)(F)F)c3)C(=O)C23CCC3)cc1F ) = 0.499

Reported difference in habituation to acoustic stimuli ( Cc1ncc([N+](=O)[O-])n1CCO [Metronidazole] ) = -2.4

Reported difference in habituation to acoustic stimuli ( CC(=O)O[C@@]12CO[C@@H]1C[C@H](O)[C@@]1(C)C(=O)[C@H](O)C3=C(C)[C@@H](OC(=O)[C@H](O)[C@@H](NC(=O)OC(C)(C)C)c4ccccc4)C[C@@](O)([C@@H](OC(=O)c4ccccc4)[C@H]21)C3(C)C [Docetaxel (hydrate)] ) = -0.117

Reported difference in habituation to acoustic stimuli ( Nc1ccn([C@@H]2O[C@H](CO)[C@@H](O)C2(F)F)c(=O)n1 [Gemcitabine] ) = -1.87

Reported difference in habituation to acoustic stimuli ( Nc1ncn([C@H]2C[C@H](O)[C@@H](CO)O2)c(=O)n1 [Decitabine] ) = 0.137

Reported difference in habituation to acoustic stimuli ( CC1=C(C(=O)O)N2C(=O)[C@@H](NC(=O)[C@H](N)c3ccc(O)cc3)[C@H]2SC1 [Cefadroxil (hydrate)] ) = -3.34

Reported difference in habituation to acoustic stimuli ( CO[C@H]1C[C@@H]2CC[C@@H](C)[C@@](O)(O2)C(=O)C(=O)N2CCCC[C@H]2C(=O)O[C@H]([C@H](C)C[C@@H]2CC[C@@H](OCCO)[C@H](OC)C2)CC(=O)[C@H](C)/C=C(\C)[C@@H](O)[C@@H](OC)C(=O)[C@H](C)C[C@H](C)/C=C/C=C/C=C/1C [Everolimus] ) = -3.73

Reported difference in habituation to acoustic stimuli ( CO[C@H]1/C=C/O[C@@]2(C)Oc3c(C)c(O)c4c(c3C2=O)C2=NC3(CCN(CC(C)C)CC3)NC2=C(NC(=O)/C(C)=C\C=C\[C@H](C)[C@H](O)[C@@H](C)[C@@H](O)[C@@H](C)[C@H](OC(C)=O)[C@@H]1C)C4=O [Rifabutin] ) = 3.31

Reported difference in habituation to acoustic stimuli ( CC(=O)O[C@]1(C(C)=O)CC[C@H]2[C@@H]3C[C@H](C)C4=CC(=O)CC[C@]4(C)[C@H]3CC[C@@]21C [Medroxyprogesterone 17-acetate] ) = -11.4

Reported difference in habituation to acoustic stimuli ( Cc1c(OCC(F)(F)F)ccnc1C[S+]([O-])c1nc2ccccc2[nH]1 (stereo not drawn) [Lansoprazole] ) = -2.95

Reported difference in habituation to acoustic stimuli ( Cc1c(-c2ccc(O)cc2)n(Cc2ccc(OCCN3CCCCCC3)cc2)c2ccc(O)cc12 [Bazedoxifene (acetate)] ) = -5.25

Reported difference in habituation to acoustic stimuli ( CC1=NN(c2ccc(C)c(C)c2)C(=O)/C1=N\Nc1cccc(-c2cccc(C(=O)O)c2)c1O [Eltrombopag] ) = 1.01

Reported difference in habituation to acoustic stimuli ( NC(=O)N1c2ccccc2C=Cc2ccccc21 [Carbamazepine] ) = 0.458
